Conditions: in isopropanol, 318.15 K
reported endpoint: solubility (mole fraction)

(Q) Look up solubility (mole fraction) for this compound: `C[N+](C)(C)C[C@H](O)CC(=O)[O-]`
(A) 0.00778

Hey, just so you know, these numbers are from BigSolDB 2.1.
